# Target System: recombinant eIF4E (Homo sapiens (Human))
# Sequence (P06730 whole entry): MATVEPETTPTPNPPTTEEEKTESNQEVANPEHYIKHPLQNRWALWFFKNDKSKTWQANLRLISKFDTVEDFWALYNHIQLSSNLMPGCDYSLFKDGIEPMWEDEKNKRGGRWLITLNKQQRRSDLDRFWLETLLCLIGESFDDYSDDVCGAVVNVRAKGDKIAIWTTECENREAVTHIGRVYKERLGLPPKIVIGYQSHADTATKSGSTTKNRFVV
# Test Name: Fluorescence polarization competition assay for eIF4E binding potency
# Condition Info: fluorescence polarization competition, 75 nM recombinant eIF4E, 20 nM EDA-m7GDP-ATTO-550; IC50 class; read-out: elF4E FP
Assay Endpoint: IC50

[Q] Give the measured IC50 for C=S(C)(=O)c1cc(C#N)c2c(=O)n(CCOc3ccc(Cl)cc3-c3ccnc4c(C(=O)O)csc34)c(C)c(F)c2c1 (stereo not drawn)
[A] < 50 nM

[Q] Give the measured IC50 for Cc1nc2c(F)cc(CN(C)C)c(C#N)c2c(=O)n1CCOc1ccc(Cl)cc1-c1ccnc2c(C(=O)O)csc12
[A] < 50 nM

[Q] Give the measured IC50 for Cc1nc2cnc(N(C)C3CCN(C4CC(F)(F)C4)CC3)c(C#N)c2c(=O)n1CC#Cc1ccc(Cl)cc1-c1ccnc2c(C(=O)NS(=O)(=O)c3ccncc3)csc12
[A] < 50 nM

[Q] Give the measured IC50 for Cc1nc2cnc(N(C)C3CCN(CC4(F)CCC4)CC3)c(C#N)c2c(=O)n1CC#Cc1ccc(Cl)cc1-c1ccnc2c(C(=O)O)csc12
[A] < 50 nM

[Q] Give the measured IC50 for Cc1cc(-c2cc(Cl)ccc2OCCn2c(C)nc3cc(C(F)(F)F)cc(C#N)c3c2=O)c2csc(C(=O)O)c2n1
[A] 50 to 1000 nM

[Q] Give the measured IC50 for Cc1cc(C(=O)O)c(C#N)c(-c2cc(Cl)ccc2OCCn2cnc3cnc(C#N)cc3c2=O)n1
[A] > 1000 nM
